# Assay System: MINK(h) (Homo sapiens, UniProt Q8N4C8)
# Construct: purchased Millipore
# Sequence (Q8N4C8 whole entry): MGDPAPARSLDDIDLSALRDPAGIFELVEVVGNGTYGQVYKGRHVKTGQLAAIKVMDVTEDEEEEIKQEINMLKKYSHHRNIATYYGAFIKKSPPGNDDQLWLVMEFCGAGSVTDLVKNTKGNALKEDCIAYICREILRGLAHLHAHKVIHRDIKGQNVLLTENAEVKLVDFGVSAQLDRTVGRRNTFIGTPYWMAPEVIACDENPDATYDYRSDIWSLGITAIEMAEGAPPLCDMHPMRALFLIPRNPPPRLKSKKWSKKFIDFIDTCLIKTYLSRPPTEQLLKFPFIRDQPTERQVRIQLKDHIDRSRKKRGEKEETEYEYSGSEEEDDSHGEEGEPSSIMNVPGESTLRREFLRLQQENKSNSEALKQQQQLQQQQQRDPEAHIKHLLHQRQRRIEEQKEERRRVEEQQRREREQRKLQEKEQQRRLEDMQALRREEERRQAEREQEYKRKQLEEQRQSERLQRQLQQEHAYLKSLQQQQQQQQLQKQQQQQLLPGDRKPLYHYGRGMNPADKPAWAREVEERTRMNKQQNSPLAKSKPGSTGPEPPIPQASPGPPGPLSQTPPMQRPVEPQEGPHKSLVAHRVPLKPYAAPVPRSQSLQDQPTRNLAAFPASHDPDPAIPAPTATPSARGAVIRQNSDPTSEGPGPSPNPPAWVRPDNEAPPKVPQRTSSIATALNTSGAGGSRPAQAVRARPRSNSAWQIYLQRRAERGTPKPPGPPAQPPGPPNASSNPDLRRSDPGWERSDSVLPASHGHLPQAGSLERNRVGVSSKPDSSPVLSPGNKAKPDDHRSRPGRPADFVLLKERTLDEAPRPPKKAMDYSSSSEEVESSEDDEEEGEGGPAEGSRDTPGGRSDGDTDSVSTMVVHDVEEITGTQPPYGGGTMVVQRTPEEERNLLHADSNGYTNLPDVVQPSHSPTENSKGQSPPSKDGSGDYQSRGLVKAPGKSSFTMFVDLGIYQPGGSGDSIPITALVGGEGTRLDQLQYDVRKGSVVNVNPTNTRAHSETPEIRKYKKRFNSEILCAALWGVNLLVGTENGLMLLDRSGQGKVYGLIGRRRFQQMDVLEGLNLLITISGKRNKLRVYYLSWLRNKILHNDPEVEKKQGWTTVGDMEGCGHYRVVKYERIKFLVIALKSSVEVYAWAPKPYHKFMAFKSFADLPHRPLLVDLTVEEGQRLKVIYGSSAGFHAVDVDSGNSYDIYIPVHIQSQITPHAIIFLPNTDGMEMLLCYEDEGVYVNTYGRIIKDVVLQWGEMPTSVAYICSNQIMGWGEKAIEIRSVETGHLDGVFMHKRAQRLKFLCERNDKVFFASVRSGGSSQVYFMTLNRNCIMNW
# Protocol Notes: Kinase Profiling Assay
# Format: biochemical
# Experimental Conditions: peptide 100 μM
No end group written: not given here.
Measured Property: % activity (%)

                                   residues  measured_property  readout_value
0        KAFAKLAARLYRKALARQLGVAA [MMI-0400]         % activity             52
1  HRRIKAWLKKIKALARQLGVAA (Mammal) [MMI-0500]         % activity              5
2          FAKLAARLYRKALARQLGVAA [MMI-0300]         % activity             48
3         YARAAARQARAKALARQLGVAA [MMI-0100]         % activity             96
